Target: CYP1A2 (Homo sapiens (Human))
Sequence (P05177 whole entry): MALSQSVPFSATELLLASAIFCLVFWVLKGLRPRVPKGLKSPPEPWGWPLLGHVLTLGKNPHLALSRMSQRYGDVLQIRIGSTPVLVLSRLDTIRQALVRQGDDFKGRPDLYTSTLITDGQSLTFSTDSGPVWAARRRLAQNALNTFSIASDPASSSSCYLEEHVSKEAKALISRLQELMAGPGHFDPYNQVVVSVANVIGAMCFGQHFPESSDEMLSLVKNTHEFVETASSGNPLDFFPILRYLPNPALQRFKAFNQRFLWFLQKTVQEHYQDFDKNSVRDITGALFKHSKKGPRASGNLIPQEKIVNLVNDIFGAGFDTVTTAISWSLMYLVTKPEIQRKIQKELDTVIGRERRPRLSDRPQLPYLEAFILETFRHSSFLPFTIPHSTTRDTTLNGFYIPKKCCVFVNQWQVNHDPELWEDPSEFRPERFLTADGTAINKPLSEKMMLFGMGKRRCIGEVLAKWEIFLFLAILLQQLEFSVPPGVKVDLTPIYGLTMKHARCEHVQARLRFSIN
Measured quantity: IC50

CCOc1cc2c(cc1OC)-c1c/c(=N\c3c(C)cc(C)cc3C)n(CCNC(=O)c3c(O)nnn3C)c(=O)n1CC2 [WX036]    50 µM

----------
Here the recorded IC50 is given for each entry.
System: TNF-α in human peripheral blood mononuclear cells (hPBMCs)
Assay: Inhibitory activity against TNF-α in human peripheral blood mononuclear cells
Format: cell-based
Conditions: PBMC, TNF-α in supernatant, 1 ng/mL LPS, 24 hours, read-out: hPBMC IC50
Measured quantity: IC50 (nM)

CCOc1cc2c(cc1OC)-c1c/c(=N\c3c(C)cc(C)cc3C)n(CCNc3nc[nH]n3)c(=O)n1CC2    3.1
CCOc1cc2c(cc1OC)-c1c/c(=N\c3c(C)cc(C)cc3C)n(CCC(=O)Nc3nnc[nH]3)c(=O)n1CC2    1.8
CCOc1cc2c(cc1OC)-c1c/c(=N\c3c(C)cc(C)cc3C)n(CCNC(=O)c3nnc[nH]3)c(=O)n1CCC2    0.25
CCOc1cc2c(cc1OC)-c1c/c(=N\c3c(C)cc(C)cc3C)n(CCNC(=O)c3ccn[nH]3)c(=O)n1CC2    0.09
CCOc1cc2c(cc1OC)-c1c/c(=N\c3c(C)cc(C)cc3C)n(CCNc3nc[nH]n3)c(=O)n1CCC2    0.33
CCOc1cc2c(cc1OC)-c1c/c(=N\c3c(C)cc(C)cc3C)n(CCNC(=O)c3cnn[nH]3)c(=O)n1CC2    2.8
CCOc1cc2c(cc1OC)-c1c/c(=N\c3c(C)cc(C)cc3C)n(CCNC(=O)c3nnc[nH]3)c(=O)n1CC2    0.36

----------
Experiment: Pharmacokinetic experiment in beagle dogs
Type: in vivo
Settings: male, dog, plasma, intravenous injection 0.5 mg/kg
Measured quantity: clearance (mL/min/kg)

CCOc1cc2c(cc1OC)-c1c/c(=N\c3c(C)cc(C)cc3C)n(CCNC(=O)c3c(O)nnn3C)c(=O)n1CC2    70.3
